For each record, write down the corresponding pIC50.
Molecular target: UniProt:P41144
Sequence (P41144 whole entry): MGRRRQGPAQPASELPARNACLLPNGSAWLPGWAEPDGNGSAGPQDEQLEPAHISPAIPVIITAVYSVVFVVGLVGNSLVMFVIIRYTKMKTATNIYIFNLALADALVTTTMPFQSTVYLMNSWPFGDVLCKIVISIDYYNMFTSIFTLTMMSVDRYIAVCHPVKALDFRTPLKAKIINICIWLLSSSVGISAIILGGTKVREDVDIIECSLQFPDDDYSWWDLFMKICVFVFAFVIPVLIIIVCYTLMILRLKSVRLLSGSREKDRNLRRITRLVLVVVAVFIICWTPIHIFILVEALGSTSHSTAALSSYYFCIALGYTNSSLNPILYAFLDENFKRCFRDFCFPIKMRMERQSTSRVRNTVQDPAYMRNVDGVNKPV
Lab note: report pIC50 as minus log10 of the concentration in molar units, number only.

Entry Oc1ccc2c3c1O[C@H]1[C@H](OCc4ccccc4CN=C=S)CC[C@@]4(O)C(C2)N(CC2CC2)CCC314 (some centres not stated) ; pIC50 = 7.37

Entry Oc1ccc2c3c1O[C@H]1[C@H](OCc4ccc(N=C=S)cc4)CC[C@@]4(O)C(C2)N(CC2CC2)CCC314 (some centres not stated) ; pIC50 = 7.68

Entry Oc1ccc2c3c1O[C@H]1[C@H](OCc4cccc(N=C=S)c4)CC[C@@]4(O)C(C2)N(CC2CC2)CCC314 (some centres not stated) ; pIC50 = 7.77

Entry Oc1ccc2c3c1O[C@H]1[C@H](OCc4ccc(CN=C=S)cc4)CC[C@@]4(O)C(C2)N(CC2CC2)CCC314 (some centres not stated) ; pIC50 = 8.13

Entry Oc1ccc2c3c1O[C@H]1[C@H](OCc4ccccc4N=C=S)CC[C@@]4(O)C(C2)N(CC2CC2)CCC314 (some centres not stated) ; pIC50 = 8.09

Entry `Oc1ccc2c3c1O[C@H]1[C@@H](O)CC[C@@]4(O)[C@@H](C2)N(CC2CC2)CC[C@]314` ; pIC50 = 8.59

Entry Oc1ccc2c3c1O[C@H]1[C@H](OCc4cccc(CN=C=S)c4)CC[C@@]4(O)C(C2)N(CC2CC2)CCC314 (some centres not stated) ; pIC50 = 8.22

----------
For each record, write down the corresponding pIC50.
Lab note: report pIC50 as minus log10 of the concentration in molar units, number only.

pIC50 of Oc1ccc2c3c1O[C@H]1[C@H](OCc4ccccc4N=C=S)CC[C@@]4(O)C(C2)N(CC2CC2)CCC314 (some centres not stated) , assay on UniProt:P97266, is 9.10

pIC50 of Oc1ccc2c3c1O[C@H]1[C@H](OCc4ccc(CN=C=S)cc4)CC[C@@]4(O)C(C2)N(CC2CC2)CCC314 (some centres not stated) , assay on UniProt:P97266, is 7.96

pIC50 of Oc1ccc2c3c1O[C@H]1[C@H](OCc4ccc(N=C=S)cc4)CC[C@@]4(O)C(C2)N(CC2CC2)CCC314 (some centres not stated) , assay on UniProt:P97266, is 8.02

pIC50 of Oc1ccc2c3c1O[C@H]1[C@H](OCc4cccc(CN=C=S)c4)CC[C@@]4(O)C(C2)N(CC2CC2)CCC314 (some centres not stated) , assay on UniProt:P97266, is 7.72

pIC50 of Oc1ccc2c3c1O[C@H]1[C@H](OCc4cccc(N=C=S)c4)CC[C@@]4(O)C(C2)N(CC2CC2)CCC314 (some centres not stated) , assay on UniProt:P97266, is 7.57

pIC50 of `Oc1ccc2c3c1O[C@H]1[C@@H](O)CC[C@@]4(O)[C@@H](C2)N(CC2CC2)CC[C@]314` , assay on UniProt:P97266, is 8.96

pIC50 of Oc1ccc2c3c1O[C@H]1[C@H](OCc4ccccc4CN=C=S)CC[C@@]4(O)C(C2)N(CC2CC2)CCC314 (some centres not stated) , assay on UniProt:P97266, is 7.70

----------
Target: Opioid receptors; mu/kappa/delta
Experiment: Inhibitory concentration was determined against Opioid receptors using [3H]- bremazocine radioligand
Assay type: protein assay, Cavia porcellus
For each record, write down the corresponding IC50.
Quick reminder: number only, in nM, skip the unit.

Entry Oc1ccc2c3c1O[C@H]1[C@H](OCc4cccc(N=C=S)c4)CC[C@@]4(O)C(C2)N(CC2CC2)CCC314 (stereo partly specified) ; IC50 = 27

Entry Oc1ccc2c3c1O[C@H]1[C@H](OCc4ccc(N=C=S)cc4)CC[C@@]4(O)C(C2)N(CC2CC2)CCC314 (stereo partly specified) ; IC50 = 22

Entry Oc1ccc2c3c1O[C@H]1[C@H](OCc4ccccc4N=C=S)CC[C@@]4(O)C(C2)N(CC2CC2)CCC314 (stereo partly specified) ; IC50 = 8.8

Entry Oc1ccc2c3c1O[C@H]1[C@H](OCc4ccc(CN=C=S)cc4)CC[C@@]4(O)C(C2)N(CC2CC2)CCC314 (stereo partly specified) ; IC50 = 21

Entry Oc1ccc2c3c1O[C@H]1[C@H](OCc4ccccc4CN=C=S)CC[C@@]4(O)C(C2)N(CC2CC2)CCC314 (stereo partly specified) ; IC50 = 69

Entry Oc1ccc2c3c1O[C@H]1[C@H](OCc4cccc(CN=C=S)c4)CC[C@@]4(O)C(C2)N(CC2CC2)CCC314 (stereo partly specified) ; IC50 = 24
